B1: tRNA (parent)
chain: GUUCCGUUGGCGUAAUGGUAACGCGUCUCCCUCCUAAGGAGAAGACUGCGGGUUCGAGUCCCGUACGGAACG

variants of: B1; experiment: yeast fitness relative to wild type (ratio to wild type); higher = fitter; tRNA-Arg(CCU), competitive growth, 37 C, YPD
This sample holds only a part of the variants without activity.
Below, each entry is listed with its recorded yeast fitness.
VALUE_TYPE: yeast fitness

{"VARIANT_NAME": "U26C C30G C34U C49U", "MODIFIER": "=", "QUANTITATIVE_RESULT": 0.51}
{"VARIANT_NAME": "A15U A57G", "MODIFIER": "=", "QUANTITATIVE_RESULT": 0.927}
{"VARIANT_NAME": "C5G C66A", "MODIFIER": "=", "QUANTITATIVE_RESULT": 0.703}
{"VARIANT_NAME": "A21C C66A", "MODIFIER": "=", "QUANTITATIVE_RESULT": 0.527}
{"VARIANT_NAME": "C31U U47A", "MODIFIER": "=", "QUANTITATIVE_RESULT": 0.817}
{"VARIANT_NAME": "C31U U32C", "MODIFIER": "=", "QUANTITATIVE_RESULT": 0.812}
{"VARIANT_NAME": "C30A C60A", "MODIFIER": "=", "QUANTITATIVE_RESULT": 0.619}
{"VARIANT_NAME": "C31G A36U G39A", "MODIFIER": "≤", "QUANTITATIVE_RESULT": 0.5}
{"VARIANT_NAME": "C11A C27G C33U G56A C61G", "MODIFIER": "≤", "QUANTITATIVE_RESULT": 0.5}
{"VARIANT_NAME": "G23A A36U G39C G68A", "MODIFIER": "≤", "QUANTITATIVE_RESULT": 0.5}
{"VARIANT_NAME": "C31A G38A", "MODIFIER": "=", "QUANTITATIVE_RESULT": 0.792}
